From: ChEMBL document CHEMBL1128468

Target: UniProt P79218
Sequence (P79218 whole entry): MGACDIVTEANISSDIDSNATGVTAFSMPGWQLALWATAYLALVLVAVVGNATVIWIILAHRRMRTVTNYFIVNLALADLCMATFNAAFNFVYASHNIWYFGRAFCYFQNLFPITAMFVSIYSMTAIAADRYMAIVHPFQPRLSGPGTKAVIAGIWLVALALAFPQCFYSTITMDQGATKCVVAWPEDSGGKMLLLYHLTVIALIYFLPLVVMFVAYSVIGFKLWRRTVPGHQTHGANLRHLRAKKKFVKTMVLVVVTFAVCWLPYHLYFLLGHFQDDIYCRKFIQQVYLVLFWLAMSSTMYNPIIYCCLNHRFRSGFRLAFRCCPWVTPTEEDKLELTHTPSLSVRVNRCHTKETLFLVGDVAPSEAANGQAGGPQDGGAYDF
Assay: Antagonist activity against Tachykinin receptor 2 was measured by Rabbit pulmonary artery(RPA) assay.
Assay type: functional
Details: read-out: pA2 (converted)

compound_smiles: CC(C)C[C@H](NC(=O)[C@@H](Cc1c[nH]c2ccccc12)NC(=O)[C@@H](NC(=O)[C@@H](Cc1c[nH]c2ccccc12)NC(=O)[C@H](Cc1ccc(O)cc1)NC(=O)[C@@H](N)CC(=O)O)C(C)C)C(=O)N[C@@H](CCCN=C(N)N)C(=O)O
Kb [nM]: 191

compound_smiles: C[C@H](NC(=O)[C@@H](Cc1c[nH]c2ccccc12)NC(=O)[C@H](Cc1ccc(O)cc1)NC(=O)[C@@H](N)CC(=O)O)C(=O)N[C@H](Cc1c[nH]c2ccccc12)C(=O)N[C@H](Cc1c[nH]c2ccccc12)C(=O)N[C@@H](CCCCN)C(=O)O
Kb [nM]: 1350

compound_smiles: CC(C)[C@H](NC(=O)[C@@H](Cc1c[nH]c2ccccc12)NC(=O)[C@H](Cc1ccc(O)cc1)NC(=O)[C@@H](N)CC(N)=O)C(=O)N[C@H](Cc1c[nH]c2ccccc12)C(=O)N[C@H](Cc1c[nH]c2ccccc12)C(=O)N[C@@H](CCCN=C(N)N)C(=O)O
Kb [nM]: 64.6

compound_smiles: CC(C)[C@H](NC(=O)[C@@H](Cc1c[nH]c2ccccc12)NC(=O)[C@H](Cc1ccc(O)cc1)NC(=O)[C@@H](N)CC(=O)O)C(=O)N[C@H](Cc1c[nH]c2ccccc12)C(=O)N[C@H](Cc1c[nH]c2ccccc12)C(=O)N[C@@H](Cc1ccc(O)cc1)C(=O)O
Kb [nM]: 100000
